Test: in vivo
Settings: mouse, in vivo, po
# LD50 values compiled below
Measure: LD50 (mg/kg)

Compound | Measure | Recorded Result
CCCOC(=O)N(C)[S+]([O-])N(C)C(=O)ON=C(C)SC (centres unmarked) [Example VI] | LD50 | 160
CCCCCCCOC(=O)N(C)[S+]([O-])N(C)C(=O)Oc1cccc2c1OC(C)(C)C2 (centres unmarked) [X] | LD50 | 150
CSC(C)=NOC(=O)N(C)[S+]([O-])N(C)C(=O)ON=C(C)SC [Example III] | LD50 | 210
CN(C(=O)Oc1cccc2c1OC(C)(C)C2)[S+]([O-])N(C)C(=O)Oc1cccc2c1OC(C)(C)C2 [Example I] | LD50 | 165

###

# LD50 values compiled below
Experiment: in vivo
Conditions: mouse, in vivo, po

Molecule | LD50
COC(=O)N(C)[S+]([O-])N(C)C(=O)Oc1cccc(C(C)C)c1 (stereo not drawn) [XII] | 70 mg/kg
CCCOC(=O)N(CC)[S+]([O-])N(C)C(=O)ON=C(C)SC (stereo not drawn) [Example V] | 115 mg/kg
COC(=O)N(C)[S+]([O-])N(C)C(=O)Oc1cccc2c1OC(C)(C)C2 (stereo not drawn) [Example VII] | 62 mg/kg
CNC(=O)ON=C(C)SC [reference compound] | 10 mg/kg
CCOC(=O)N(C)[S+]([O-])N(C)C(=O)Oc1cccc(C(C)C)c1 (stereo not drawn) | 50 to 100 mg/kg
CSC(C)(C)C=NOC(=O)N(C)[S+]([O-])N(C)C(=O)ON=CC(C)(C)SC [IV] | 1.8 mg/kg
CCCOC(=O)N(C)[S+]([O-])N(C)C(=O)Oc1cccc2c1OC(C)(C)C2 (stereo not drawn) [IX] | 100 mg/kg
CC(C)Oc1ccccc1OC(=O)N(C)[S+]([O-])N(C)C(=O)Oc1ccccc1OC(C)C [Example II] | 940 mg/kg
CCOC(=O)N(C)[S+]([O-])N(C)C(=O)Oc1cccc2c1OC(C)(C)C2 (stereo not drawn) [VIII] | 56 mg/kg
